format: physicochemical; settings: 1000 ppm water; C = cream
Property: % Separation, 24 h; scope: individual compounds

Worked cases, answers included:
# COMPOUND, % Separation, 24 h
records = [
    ("CCCCCCCCCCCC(=O)OC(CCCCCCCC(=O)OC)C(CC)S(=O)(=O)[O-].[Na+] (stereo not shown)", "3 C, %"),
    ("CCCCCCCCCCCC(=O)OC(CCCCCCCC(=O)[O-])C(CC)S(=O)(=O)[O-].[Na+].[Na+] (stereo not shown)", "4 C, %"),
    ("CCCCCCCCCCCCCCCCCC(=O)OC(CCCCCCCC(=O)[O-])C(CC)S(=O)(=O)[O-].[Na+].[Na+] (stereo not shown)", "4 C, %"),
]

Now look at this one.
response.value for CCCCCCCCCC(=O)OC(CCCCCCCC(=O)OC)CS(=O)(=O)[O-].[Na+] (stereo not shown) (field: % Separation, 24 h) = 4%
